Provenance of the data: patent US20130316985A1

Measured EC50 of individual entries
Molecular target: GPR35 (Homo sapiens)
Sequence (Q9HC97 whole entry): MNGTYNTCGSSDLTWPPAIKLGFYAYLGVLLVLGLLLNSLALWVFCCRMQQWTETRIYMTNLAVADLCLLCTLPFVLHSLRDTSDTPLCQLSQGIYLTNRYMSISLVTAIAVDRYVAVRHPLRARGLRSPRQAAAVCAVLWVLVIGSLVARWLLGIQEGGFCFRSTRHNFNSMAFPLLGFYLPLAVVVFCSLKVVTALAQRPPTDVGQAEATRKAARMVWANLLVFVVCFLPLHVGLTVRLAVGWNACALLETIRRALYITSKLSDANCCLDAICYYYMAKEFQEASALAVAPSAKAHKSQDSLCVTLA
Assay: DMR agonism assay in native HT-29 cells (Epic optical biosensor)
// return numeric value only (unit: nM, not printed)

>  <compound>
O=C(O)c1cc(/N=N/c2ccc(O)c(C(=O)O)c2)ccc1O (single isomer, unassigned) [olsalazine]

>  <EC50 (nM)>
21.8

$$$$

Alright, here's another compound for you.
Query block: Which measured EC50 value corresponds to O=C(O)c1cc(/N=N/c2ccc(O)c(C(=O)O)c2)ccc1O [Bi-ASA] ?
Result block: 2.09
